FACS Emax ratio to BG87P values, listed per item
- target_of_assay: T1, human claudin 6 (CLDN6) (human, UniProt P56747 1-220)
- T1 construct: also called human CLDN6; hCLDN6
- T1 sequence: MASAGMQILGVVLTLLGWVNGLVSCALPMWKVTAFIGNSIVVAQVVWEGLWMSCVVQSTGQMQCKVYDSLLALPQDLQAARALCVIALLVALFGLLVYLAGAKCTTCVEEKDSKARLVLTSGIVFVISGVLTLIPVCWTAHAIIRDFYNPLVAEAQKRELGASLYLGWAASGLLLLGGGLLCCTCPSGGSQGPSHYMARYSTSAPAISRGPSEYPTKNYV
- procedure_details: flow cytometry, HEK293T-hCLDN6 cells; ratio to chBG87P

{"columns": ["binder", "FACS Emax ratio to BG87P"],
 "data": [
  ["anti-CLDN6 chimeric BG87P (antibody, V domains shown, expressed in HEK293T; also called chBG87P; ChBG87P) VH: QIQLQQSGPELVKPGASVKISCKASGYSFTDYHINWVKQRPGQGLEWIGWIYPGSGYTKYNEKFKVKATLTVDTSSSTAYMHLTSLTSEDSAVYFCARSGIYHYVSSYYFDHWGQGTTLTVSS VL: DIVMTQSHTFMSTSVGDRVSITCKASQDVGTAVAWYQQKPGQSPKLLIYWASTRHTGVPDRFTGSGSGTDFTLTISNVQSEDLADYFCQQYSSYTFGGGTKLEIK", 1],
  ["BG87P-31 (antibody, V domains shown, Solubility engineering variant of BG87P-21) VH: QVQLQQSGAETKKPGASVKVSCKASGYSFTDYHINWVRQASGQRLEWMGYIYPGSGHTKKNEKFKGRVTITRDTSASTAYMELSSLRSEDTAVYYCARSGIYHYVSSYYFDHWGKGTTVTVSS VL: DIQMTQSPSTLSASVGDRVTITCKASQDAGSAVAWYQQKPGKAPKLLIKWASTRHTGVPSRFSGSGSGTEFTLTISSLQPDDFATYYCQQYSSYTFGGGTKVEIK", 0.76]
]}
